# System: Human alphaherpesvirus 2
# Protocol Description: Antiviral activity against HSV-2 infected in African green monkey Vero cells assessed as reduction in virus-induced cytopathic effect incubated for 3 days by MTT assay
# Type: functional, organism-based
# Condition Notes: Human alphaherpesvirus 2, Vero, 72 h
pEC50: −log10 of the molar value.
Let's look at some molecules and their measured pEC50.

[[record]]
molecule = "CNC1NC(N)=Nc2c1ncn2C[Se]C(CO)CO (stereo not drawn)"
recorded_value = "< 4.00"

[[record]]
molecule = "NC1=Nc2c(ncn2C[Se]C(CO)CO)C(N)N1 (stereo not drawn)"
recorded_value = "< 4.00"


Now consider a different molecule.
stdin: So what pEC50 did NC1=Nc2c(ncn2C[Se]C(CO)CO)C(NC2CC2)N1 (stereo not drawn) get with Human alphaherpesvirus 2?
stdout: < 4.00

---

Let's look at some compounds and their measured pEC50.
# Tested on: Human alphaherpesvirus 1
# Protocol Description: Antiviral activity against HSV-1 infected in African green monkey Vero cells assessed as reduction in virus-induced cytopathic effect incubated for 3 days by MTT assay
# Type: functional, organism-based
# Condition Notes: Human alphaherpesvirus 1, Vero, 72 h
pEC50: −log10 of the molar value.

// solved cases for pEC50 follow
[[record]]
compound = "CNC1NC(N)=Nc2c1ncn2C[Se]C(CO)CO (stereo not drawn)"
measurement_target = "Human alphaherpesvirus 1"
measurement_label = "pEC50"
recorded_value = "< 4.00"

[[record]]
compound = "NC1=Nc2c(ncn2C[Se]C(CO)CO)C(NC2CC2)N1 (stereo not drawn)"
measurement_target = "Human alphaherpesvirus 1"
measurement_label = "pEC50"
recorded_value = "< 4.00"


Now consider a different compound.
stdin: I would be grateful if you could share the reported pEC50 for NC1=Nc2c(ncn2C[Se]C(CO)CO)C(N)N1 (stereo not drawn) .
stdout: < 4.00
